Assay: melting temperature; fluorescence melt of hairpins on a sequencing array, two-state fit, raised by 9.35 °C to match UV melts
Settings: sodium 0.088 M
endpoint: Tm (°C)
Just the number please, in °C, no unit attached.

[ask] Respond only with Tm recorded for CGGCCTCGGAAACGACCG (((..(((....))))))
[reply] 34.5

[ask] Respond only with Tm recorded for ACGTGGAAACACGT (((((....)))))
[reply] 55.5

[ask] Respond only with Tm recorded for GGTCAAGGAAACTTGATC (.(((((....))))).)
[reply] 42.1

[ask] Respond only with Tm recorded for GAGTAGACGAAAGTCCTC (((..(((....))))))
[reply] 32.8

[ask] Respond only with Tm recorded for GCGTAGAGACGC ((((....))))
[reply] 49.1

[ask] Respond only with Tm recorded for AGCCAGAAATGGCT (((((....)))))
[reply] 54.4

[ask] Respond only with Tm recorded for GGCAGCGAAAGCTTGCC ((((((....))).)))
[reply] 63.1

[ask] Respond only with Tm recorded for GCCCCGCGAAAGCAGAGC ((.(.((....)).).))
[reply] 32.8

[ask] Respond only with Tm recorded for GAGGTCGGAAACGGTCTC (((..((....))..)))
[reply] 39.6

[ask] Respond only with Tm recorded for GAGCCCACGAAAGTGCTC (((..(((....))))))
[reply] 35.8

[ask] Respond only with Tm recorded for GGTCAACGAAAGTTTACC (((.(((....))).)))
[reply] 42.8

[ask] Respond only with Tm recorded for GTCCATGGAAACACGGAC ((((.((....)).))))
[reply] 42.1

* * *

Test: folding enthalpy; higher = less favourable; fluorescence melt of hairpins on a sequencing array, two-state fit
Details: sodium 0.088 M
Can you tell me folding enthalpy for the items I'm about to list?
Just the number please, in kcal/mol, no unit attached.

[ask] Respond only with folding enthalpy recorded for GCCTACCGAAAGGTGGGC (((.(((....))).)))
[reply] -38.6

[ask] Respond only with folding enthalpy recorded for GGTTTCGAAAGAACGACC ((((((....)))..)))
[reply] -14.4

[ask] Respond only with folding enthalpy recorded for GCACCTCGAAAGAGCTGC (((.(((....))).)))
[reply] -25.5

[ask] Respond only with folding enthalpy recorded for GGACCCGAAAGGGTTCC ((((((....))).)))
[reply] -16.8

[ask] Respond only with folding enthalpy recorded for GACCTACGAAAGTACGTC (((.(((....))).)))
[reply] -24.6

[ask] Respond only with folding enthalpy recorded for GCATATGGAAACATATGC (((((((....)))))))
[reply] -41.6

[ask] Respond only with folding enthalpy recorded for GGATCCGAAAGGATTCC ((((((....))).)))
[reply] -30.2

[ask] Respond only with folding enthalpy recorded for GATCAATTAGTTGATC ((((((....))))))
[reply] -35

[ask] Respond only with folding enthalpy recorded for GTCCCAGCGAAAGCTGAC (((..(((....))))))
[reply] -8.81

[ask] Respond only with folding enthalpy recorded for GGCAGCGGAAACGTTGCC ((((.((....)).))))
[reply] -40.4

[ask] Respond only with folding enthalpy recorded for GGTTTCGAAAGAAGAACC ((((((....)))..)))
[reply] -18.3

[ask] Respond only with folding enthalpy recorded for GGTGAGAAATCACC (((((....)))))
[reply] -27.6

* * *

Assay: melting temperature; fluorescence melt of hairpins on a sequencing array, two-state fit, raised by 9.35 °C to match UV melts
Conditions: sodium 0.088 M
Can you tell me Tm for the items I'm about to list?
Just the number please, in °C, no unit attached.

[ask] Respond only with Tm recorded for GCGTCCTCACGC ((((....))))
[reply] 50.9

[ask] Respond only with Tm recorded for GCGAACGGAAACGTCCGC (((.(((....))).)))
[reply] 54.6

[ask] Respond only with Tm recorded for GGTCACGAAAGTGACACC ((((((....)))..)))
[reply] 52

[ask] Respond only with Tm recorded for GGACACGAAAGTGTTTCC ((((((....)))..)))
[reply] 38

[ask] Respond only with Tm recorded for GATATCGCGAAAGCGATC (((..(((....))))))
[reply] 35.2

[ask] Respond only with Tm recorded for GACGATGGAAACGTTGTC (((.(.(....).).)))
[reply] 34

* * *

Assay: folding enthalpy; higher = less favourable; fluorescence melt of hairpins on a sequencing array, two-state fit
Details: sodium 0.088 M
endpoint: folding enthalpy (kcal/mol)
Just the number please, in kcal/mol, no unit attached.

[ask] Respond only with folding enthalpy recorded for GCTGTGCGAAAGCACCGC ((.((((....)))).))
[reply] -17.9

[ask] Respond only with folding enthalpy recorded for GTCCTGGGAAACCAGGGC (.(((((....))))).)
[reply] -35.5

[ask] Respond only with folding enthalpy recorded for GATCGAATATCGATC ((((((...))))))
[reply] -33.4

[ask] Respond only with folding enthalpy recorded for GAGTCGCGAAAGCGTCTC (((.(((....))).)))
[reply] -22.3

[ask] Respond only with folding enthalpy recorded for GACCAGGCGAAAGCCGTC (((..(((....))))))
[reply] -7.64

[ask] Respond only with folding enthalpy recorded for GTAATCGAAAGATACTAC ((((((....)))..)))
[reply] -18.4

* * *

Test: melting temperature; fluorescence melt of hairpins on a sequencing array, two-state fit, raised by 9.35 °C to match UV melts
Conditions: sodium 0.088 M
endpoint: Tm

[ask] Respond only with Tm recorded for GATCTCCCCGAGATC ((((((...))))))
[reply] 55.3 °C

[ask] Respond only with Tm recorded for GAGTCCCGAAAGGGCTC (((.(((....))))))
[reply] 59.5 °C

[ask] Respond only with Tm recorded for GCCTTCGAAAGAACAGGC ((((((....)))..)))
[reply] 40.9 °C

[ask] Respond only with Tm recorded for GATCAGCGTCTGATC ((((((...))))))
[reply] 49.9 °C

[ask] Respond only with Tm recorded for GGCAGAGGAAACTCTACC ((.((((....)))).))
[reply] 38.3 °C

[ask] Respond only with Tm recorded for GGGGTGCGAAAGCATCCC (((.(((....))).)))
[reply] 68.4 °C

[ask] Respond only with Tm recorded for GATCCCATCCGGGATC ((((((....))))))
[reply] 64.2 °C

[ask] Respond only with Tm recorded for GATGCAGGAAACTGCATC (((((((....)))))))
[reply] 64.7 °C

[ask] Respond only with Tm recorded for GCCCTGCGAAAGCTTGGC (((..((....))..)))
[reply] 50.6 °C

[ask] Respond only with Tm recorded for GATCCCGCTGGGGATC ((((((....))))))
[reply] 60.8 °C

[ask] Respond only with Tm recorded for GCTTTCGGAAACGAGAGC (((.(((....))).)))
[reply] 49.1 °C

[ask] Respond only with Tm recorded for GAACAACCGAAAGGTTTC (((..(((....))))))
[reply] 29.3 °C

[ask] Respond only with Tm recorded for GACTCGAAAGAGTC (((((....)))))
[reply] 61.2 °C

[ask] Respond only with Tm recorded for GTGTTTTCGAAAGAACAC (((..(((....))))))
[reply] 38.3 °C

[ask] Respond only with Tm recorded for GCTCTAGGAAACTAGAGC (((((((....)))))))
[reply] 60.1 °C

[ask] Respond only with Tm recorded for GCGGGGACGAAAGTCCGC (((..(((....))))))
[reply] 58.5 °C

[ask] Respond only with Tm recorded for GATCTGGCCACAGATC ((((((....))))))
[reply] 59.8 °C

[ask] Respond only with Tm recorded for GTATACGAAAGTATAC ((((((....))))))
[reply] 54.2 °C

[ask] Respond only with Tm recorded for GAAGCCCGAAAGGGTTC (((.(((....))))))
[reply] 47.7 °C

[ask] Respond only with Tm recorded for GCGTCGCGAAAGCGCGGC ((..(((....)))..))
[reply] 61.1 °C

[ask] Respond only with Tm recorded for GATCAGCCTTCTGATC ((((((....))))))
[reply] 48.5 °C

[ask] Respond only with Tm recorded for GCCTGGCGAAAGCGAGGC ((((.((....)).))))
[reply] 68.2 °C

[ask] Respond only with Tm recorded for GATCCGCAGGCGGATC ((((((....))))))
[reply] 66.6 °C

[ask] Respond only with Tm recorded for GGACGCGGAAACGCATCC (((.(((....))).)))
[reply] 48.9 °C

[ask] Respond only with Tm recorded for GTGGCGCCGAAAGGCCAC (((..(((....))))))
[reply] 57.8 °C

[ask] Respond only with Tm recorded for GCATGCGGAAACGTATGC ((((.((....)).))))
[reply] 56.1 °C

[ask] Respond only with Tm recorded for GATCAACTTCTTGATC ((((((....))))))
[reply] 43.9 °C

[ask] Respond only with Tm recorded for GTAAGCGCGAAAGCGTAC (((..(((....))))))
[reply] 28.8 °C

[ask] Respond only with Tm recorded for GCCCAGCGAAAGCTATGC ((..(((....)))..))
[reply] 25.6 °C

[ask] Respond only with Tm recorded for GACTGTGGAAACACAATC ((.((((....)))).))
[reply] 31.6 °C

[ask] Respond only with Tm recorded for GATCGTGGCGACGATC ((((((....))))))
[reply] 61.4 °C

[ask] Respond only with Tm recorded for GCCCTCGAAAGAGTGGC ((((((....))).)))
[reply] 58.5 °C

[ask] Respond only with Tm recorded for GTGAGAGGAAACTCTTGC (..((((....))))..)
[reply] 29.4 °C

[ask] Respond only with Tm recorded for GTGCCTGGAAACAGGTAC ((.((((....)))).))
[reply] 53.6 °C

[ask] Respond only with Tm recorded for GATCGTACCTACGATC ((((((....))))))
[reply] 55.6 °C

[ask] Respond only with Tm recorded for GCCACCGGAAACAGTGGC (((((.(....).)))))
[reply] 52.6 °C

[ask] Respond only with Tm recorded for GCCGTACGAAAGTAGGGC (((.(((....))).)))
[reply] 60.1 °C

[ask] Respond only with Tm recorded for GATCTGAATCAGATC ((((((...))))))
[reply] 44.7 °C

[ask] Respond only with Tm recorded for AGTTAGAAATAACT (((((....)))))
[reply] 25.8 °C

[ask] Respond only with Tm recorded for GTTGGCGCGAAAGCGAAC (((..(((....))))))
[reply] 45.9 °C

[ask] Respond only with Tm recorded for GGAATCGGAAACGATTCC (((((((....)))))))
[reply] 66.1 °C

[ask] Respond only with Tm recorded for GGGTCGCGAAAGCGTCCC (((.(((....))).)))
[reply] 67.1 °C

[ask] Respond only with Tm recorded for GCTGCAGGAAACCGCAGC (((((.(....).)))))
[reply] 57.8 °C

[ask] Respond only with Tm recorded for GACGTGGGAAACCACGCC (.(((((....))))).)
[reply] 48.6 °C

[ask] Respond only with Tm recorded for GTACGTGAAAACGTAC ((((((....))))))
[reply] 59.5 °C

[ask] Respond only with Tm recorded for GGTCAAGGAAACTTGGTC (..((((....))))..)
[reply] 29.7 °C

[ask] Respond only with Tm recorded for GAATCCGAAAGGATTTTC ((((((....)))..)))
[reply] 48.9 °C

[ask] Respond only with Tm recorded for GGACGCGAAAGCGACTCC ((((((....)))..)))
[reply] 46.2 °C

[ask] Respond only with Tm recorded for GAGAACGGAAACGCTCTC ((((.((....)).))))
[reply] 43.2 °C

[ask] Respond only with Tm recorded for GCGAGCGAAAGCTGCCGC ((((((....)))..)))
[reply] 53.5 °C
